test: NCI Yeast Anticancer Drug Screen. Data for the mec2-1 strain (AID 157); settings: S. cerevisiae mec2-1 strain, at 5.0 µM (retest, dose inferred, filed as 0.5)
About 79,000 compounds went through this panel and 15% of them were active in at least one assay; those are over-represented in the sample as a whole. Calls of active or inactive are those of the source. Cut-off read from the data, not from the text of the source: active = growth inhibition above about 70%; inactive = the rest.
Can you answer with just one of these options? 1 (active), 0 (inactive)

Ask | Query: recorded result category for CCOC(=O)C1=C(C(=O)OCC)C2(c3ccccc3)N(O1)c1ccccc1C2(C)C (centres undefined) in this test
Reply | 0

Ask | Which result was noted for this compound in the test: O=C(O)C(O)(c1ccccc1)C1(O)CCCCC1 (centres undefined)
Reply | 0

Ask | How was CCC1(O)C(=O)OCc2c1cc1n(c2=O)Cc2cc3cc(Cl)ccc3nc2-1 (centres undefined) classified in this test?
Reply | 1

Ask | Returns: the outcome recorded for CC(=O)Nc1cccc([As+](C)(c2cccc(NC(C)=O)c2)c2cccc(NC(C)=O)c2)c1 in this assay.
Reply | 0

====

assay: NCI Yeast Anticancer Drug Screen. Data for the mec2-1 strain (AID 157); conditions: S. cerevisiae mec2-1 strain, at 33.0 µM, active compounds read high
Compounds without any hit were thinned out: in the full panel of roughly 79,000, 15% have a hit.
measurement_name: growth inhibition (%)
One number for each entry, in %.

For every listed record, write down its growth inhibition.
1. CCC1(O)C(=O)OCc2c1cc1n(c2=O)Cc2cc3cc(Cl)ccc3nc2-1 (stereo not drawn)
2. O=c1c2ccccc2[se]n1-c1cccnc1
3. CC1(Cl)CC(C)(/C=C/Cl)C(Cl)CC1Cl (stereo not drawn)

Reply |
92
98
20

====

Would you kindly list growth inhibition for each of these molecules?
assay: NCI Yeast Anticancer Drug Screen. Data for the cln2 rad14 strain (AID 165);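 note: 0% = growth equal to vehicle treated cultures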; conditions: S. cerevisiae cln2 rad14 strain, at 5.0 µM (retest, dose inferred, filed as 0.5), active compounds read high
The panel holds about 79,000 compounds, 15% with a hit somewhere; the sample as a whole holds those more often. Calls of active or inactive are those of the source. No stated cut-off is given here; in the data, active means growth inhibition above about 70%; inactive means the rest.

Example entries and their recorded answers appear below.
molecule	test_result
C=CCN(CC=C)CC(C(C)=O)C(c1ccccc1)c1c(O)c2ccccc2oc1=O (centres undefined)	13% (inactive)
CC1=C(N2CC2)C(=O)c2ccccc2C1=O	-60% (inactive)
C[C@]12CCC(=O)C=C1CC[C@@H]1C2CC[C@@]2(C)C1CC[C@@H]2OC(=O)C12OC1CCC2=O (some centres undefined)	39% (inactive)

Kindly consider the entry below.
Ask | Give the measured growth inhibition for Cc1ccc2c(c1N)C(=O)c1ccccc1C2=O
Reply | 6% (inactive)

====

experiment: NCI Yeast Anticancer Drug Screen. Data for the cln2 rad14 strain (AID 165);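 note: 0% = growth equal to vehicle treated cultures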; settings: S. cerevisiae cln2 rad14 strain, at 50.0 µM (retest, dose inferred, filed as 5.0)
This is part of a sample that, as a whole, favours compounds with a hit. Of some 79,000 tested, about 15% had one in any assay. The source made the active and inactive calls. Rule as the data show it: active = growth inhibition above about 70%; inactive = the rest.
Would you mind answering with one of these outcomes? active, inactive

Observe how each entry below is paired with its result.
compound	group
Cn1c(=O)c2[nH]cnc2n(C)c1=O.[CH2-]C(Cc1cccc2cc(C(=O)O)c(=O)oc12)OC.[Hg+2].[OH-] (stereo not given)	inactive
O=c1oc2ccccc2c(O)c1C(c1ccco1)c1c(O)c2ccccc2oc1=O	inactive
COC(=O)C1=C(C(=O)OC)[C]([Hg][CH3])(C(C)=O)N=N1 (stereo not given)	active
O=C(CBr)OCc1ccccc1	active

Read the next record carefully.
Ask | GET /call?item= [Pt].c1ccc(P(CCP(c2ccccc2)c2ccccc2)CCP(c2ccccc2)c2ccccc2)cc1 returns the recorded outcome of this test.
Reply | active

====

Assay: NCI Yeast Anticancer Drug Screen. Data for the wt2 strain (AID 169);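 note: 0% = growth of vehicle-treated yeast cultures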
Details: S. cerevisiae wt2 strain growth inhibition; at 33.0 µM; active compounds read high
Protocol: Growth inhibition of yeast strains with defined genetic alterations is measured as a screen for potential anti-cancer activity. Selected strains with alterations in DNA damage repair or cell cycle control were exposed to compounds and growth inhibition was measured relative to vehicle treated controls. The strain used in this assay is wt2
About 79,000 compounds went through this panel and 15% of them were active in at least one assay; those are over-represented in the sample as a whole.
Tag: yes (1) if measured growth inhibition is not below 30%, no (0) if it is.

compound	group
CC(Cc1ccccc1)N(C)Cc1nc(C2CCC([N+](=O)[O-])O2)no1 (stereo not given)	no (0)
Cc1ccc2nc3sc(=O)sc3nc2c1	yes (1)
BrCC[N+]12CC[N+](CCBr)(CC1)C2	yes (1)
O=[N+]([O-])c1cc([As](Br)c2ccc(O)c([N+](=O)[O-])c2)ccc1O	yes (1)
COC1CC(CC2CCC(C)C(C(C)C(=O)O)O2)OC2(OC(C)(C3CCC(C)(C4OC(C5OC(O)(CO)C(C)CC5C)CC4C)O3)CC2C)C1C (stereo not given)	yes (1)
CC1CN=C(Nc2ccccc2)S1 (stereo not given)	no (0)

Ask | State whether the measured growth inhibition reaches 30%, counting equality as reaching it, for O=C(COc1ccc(Cl)cc1Cl)NO
Reply | no (0)

Ask | Does the compound CC[C@@]1(O)C(=O)OCc2c1cc1n(c2=O)Cc2cc3c(NC(=O)CN)cccc3nc2-1 have recorded growth inhibition that is 30% or more?
Reply | no (0)

====

test: NCI Yeast Anticancer Drug Screen. Data for the mec2-1 strain (AID 157); conditions: S. cerevisiae mec2-1 strain, at 50.0 µM, active compounds read high
About 79,000 compounds went through this panel and 15% of them were active in at least one assay; those are over-represented in the sample as a whole.
I'd be grateful if you could share measured growth inhibition for these entries.
Give bare numbers, in %.

Study these solved cases before continuing.
compound	growth inhibition, %
CC(C)(C)C1=CC(=C/C=C/c2cc(C(C)(C)C)[o+]c(C(C)(C)C)c2)C=C(C(C)(C)C)O1	95.6
NCCc1ccc(OCc2ccccc2)c(OCc2ccccc2)c1	91.5

Batch of 3 compounds: report growth inhibition for each.
1. O=c1[nH]cc(Cn2cnc3ncccc3c2=O)c(=O)[nH]1
2. CC1=C2C(=C[C@@](C)(CO)[C@@H]2O)C(=O)[C@](C)(O)C12CC2
3. Cc1nc2ccccc2cc1C[N+]12CN3CN(CN(C3)C1)C2

Reply |
1: 7.55; 2: 22.9; 3: 25.1

Hi there! I need growth inhibition for each item below, if you can.
1. ClCCN(CCCl)B(N(CCCl)CCCl)N(CCCl)CCCl
2. C[C@H](N)C(=O)N[C@@H]1[C@H]2C(=C(O)C[C@@H](O)[C@@H]2O)C(=O)O[C@]1(C)C(Cl)Cl
3. CC1CCS(=O)(=O)CC1.[Cl][Hg][Cl]
4. CCCCCCCCCCCC[As](=O)(O)O

Reply |
99.3
13.1
99.6
99.3

// for each compound below, give its growth inhibition
1. CC(C)=CC1CC(C)C2(CCC3(C)CC4C(C(=O)CC4(C)O)/C(C=O)=C\CC32)O1 (stereo not drawn)
2. Cc1cc(C)[n+](CCOc2ccc(/C(=C(/Cl)c3ccccc3)c3ccccc3)cc2)c(C)c1
3. O=c1c[n+](-c2ccc[nH+]c2)[nH]o1.[Cl][Hg][Cl]
4. COC1C(C)OC(OC2CC(C)(O)Cc3cc4c(c(O)c32)C(=O)c2c(O)cc3c(c2C4=O)OC2OC3(C)C(O)C(N(C)C)C2O)C(OC)C1(C)OC (stereo not drawn)
5. CSc1ccc2c(c1)c(CCN)c(C)n2Cc1ccccc1Cl
6. CC1=C(O)C(=O)C=C2C1=CC=C1[C@@]2(C)CCC2(C)[C@@H]3C[C@@H](C)C(=O)C[C@]3(C)CC[C@]12C (stereo partly drawn)
7. CCC1CC2C3Cc4ccc(OC)c(O)c4C2(CCN3C)CC1=O (stereo not drawn)

Reply |
94.6
91.9
99.5
93
99.5
90.5
-6

Here are 5 compounds. What values of growth inhibition were reported for them?
1. O=C(Nc1ccccc1)c1cc([N+](=O)[O-])ccc1O
2. O=C([O][Hg][CH2]C1CC(O)CC([CH2][Hg][O]C(=O)c2ccccc2)O1)c1ccccc1 (stereo not drawn)
3. C=Cc1c2ccccc2cc2ccccc12
4. ClCCCCCl
5. CCC(C)c1cc([N+](=O)[O-])cc([N+](=O)[O-])c1O (stereo not drawn)

Reply |
92
99.2
75.2
16.8
66.2

Field: growth inhibition. Fill in for each record below.
1. CC[C@@]1(O)C(=O)OCc2c1cc1n(c2=O)Cc2cc3ccccc3nc2-1
2. CC(=O)O.[Au].c1ccc([PH+](c2ccccc2)c2ccccc2)cc1

Reply |
1. 88.2
2. 98.2

====

Hi there, I'd appreciate the recorded growth inhibition for every entry that follows.
experiment: NCI Yeast Anticancer Drug Screen. Data for the wt1 strain (AID 149);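 note: 0% = growth of vehicle-treated wt1 cultures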; conditions: S. cerevisiae wt1 strain (SPY 50644) growth inhibition; at 11.0 µM; active compounds read high
This is part of a sample that, as a whole, favours compounds with a hit. Of some 79,000 tested, about 15% had one in any assay.
Numbers only, in %.

Would you please look over these solved cases?
molecule	growth inhibition [%]
Cc1ccc2nc3sc(=O)sc3nc2c1	88
O=C1c2ccc3ccccc3c2CCC1N1CCCCC1 (stereo unspecified)	9

Can you give me growth inhibition for all of these, one by one?
1. C[C@@]12CCC(=O)C=C1CC[C@H]1C2=CC[C@]2(C)C1CC[C@@]2(C)O (stereo partly specified)
2. CCCCCCCCCCCCCCCCP(=O)(O)OP(=O)(O)OCC1OC(n2ccc(N)nc2=O)C(O)C1O (stereo unspecified)
3. CCOC(=O)C1C2c3ccccc3C(c3ccccc32)C1C(=O)OCC (stereo unspecified)
4. COC(=O)C1=C(C(=O)OC)C2OC1c1cc3ccccc3cc12
5. O=[N+]([O-])c1cc([As](Br)c2ccc(O)c([N+](=O)[O-])c2)ccc1O
6. N#Cc1cc(N(CCCl)CCCl)c([N+](=O)[O-])cc1[N+](=O)[O-]
7. COc1ccc(OC)c(/C=C/[N+](=O)[O-])c1

Reply |
[-23, 6, -1, 37, 99, -7, -9]

For every item in the list below, what is its measured growth inhibition?
1. O=S(=O)(O)/C(=C\c1ccccc1)c1ccccc1 (tested in a mixture with another compound)
2. Cc1ccc2c(c1N)C(=O)c1ccccc1C2=O

Reply |
[1, 6]
